This collection of values is drawn from paper PMC4552634.

# Test system: P. falciparum stage V gametocytes
# Set-up: BacTiter-Glo ATP luminescence viability of purified stage V gametocytes in 384-well plates, per cent inhibition versus DMSO
# measurement-parameters: 48 h, 5 µM; inhibitor
The whole screen tested about 13,000 compounds, of which about 3,200 (25%) showed an effect of 50% or more. This is one part of the list.
measurement-label: % Inhibition (%)
Please respond with the number in % and leave the unit unwritten.

These solved cases illustrate the format of a correct answer.
CC(C)Cn1c(Sc2ccc(C#N)c([N+](=O)[O-])c2)nnc1-c1ccc(N(C)C)cc1; 35.05
C=CCn1c(Sc2ccc(C#N)c([N+](=O)[O-])c2)nnc1-c1ccc(Cl)cc1; 77.78
CC(C)Cn1c(Sc2ccc(C#N)c([N+](=O)[O-])c2)nnc1-c1cccc(Cl)c1; 40.84

Now for a further compound.
Please look at this compound and report its % Inhibition: CCCCCn1c(Sc2ccc(C#N)c([N+](=O)[O-])c2)nnc1-c1cc(OC)cc(OC)c1
-41.27

###

# System: P. falciparum stage V gametocytes
# Parameters: BacTiter-Glo ATP luminescence viability of purified stage V gametocytes in 384-well plates, per cent inhibition versus DMSO
# measurement-parameters: 48 h, 5 µM; inhibitor
Hit rate of the full screen: of about 13,000 compounds, about 3,200 (25%) showed an effect of 50% or more. The list shows a part of the results.
measurement-label: % Inhibition (%)
Please give a number only; it is taken to be in %.

Before answering, review these 3 worked examples.
Cc1nc2ccc(-c3nc4ccc(N)cc4[nH]3)cc2[nH]1; -56.67
NC1=NC(CCc2ccccc2)N(c2ccccc2)C(N)=N1 (stereo not shown); 10.89
Cc1ccc(-c2nnc(Nc3ccc(C(=O)N4CCCCC4)cc3)c3ccccc23)cc1S(=O)(=O)NCC1CCCO1 (stereo not shown); 37.21

Give % Inhibition for O=C(/C=C/c1ccc(Cl)c(Cl)c1)NC1CCC(CN2CCC(c3nc4ccccc4n3CCCO)CC2)CC1 (stereo not shown) tested on P. falciparum stage V gametocytes.
5.954

###

# Test system: P. falciparum stage V gametocytes
# Set-up: BacTiter-Glo ATP luminescence viability of purified stage V gametocytes in 384-well plates, per cent inhibition versus DMSO
# measurement-parameters: 48 h, 5 µM; inhibitor
The whole screen tested about 13,000 compounds, of which about 3,200 (25%) showed an effect of 50% or more. This is one part of the list.
measurement-label: % Inhibition (%)
# unit: % | format: bare number

Answered cases to consult:
COc1ccc(NC(=O)CCNc2cc(C)nc(NCCOc3ccccc3)n2)cc1; 16.63
Cc1cc(NCCC(=O)NCCOc2ccccc2)nc(NCCc2ccc(F)cc2)n1; 48.39
Cc1cc(NCCC(=O)NCCOc2ccccc2)nc(NCCOc2ccccc2)n1; 53.53
c1ccc2[nH]c(-c3ccc(-c4ccc(CNCCc5ccncc5)cc4)s3)nc2c1; -16.65
Cc1cc(NCCC(=O)NCCOc2ccccc2)nc(Nc2ccccc2)n1; 39.63
Cc1cc(NCCC(=O)NCCOc2ccccc2)nc(NCc2ccccc2C)n1; 9.691

Respond only with % Inhibition recorded for CC(C)CC(C)NC(=O)C1Cc2c([nH]c3ccc(F)cc23)C2(CCN(Cc3ccccc3)CC2)N1 (centres unmarked)
-71.76

# return recorded % Inhibition for entry COc1ccccc1CCNc1nc(C)cc(NCCC(=O)NCCOc2ccccc2)n1
41.79

###

# Tested on: P. falciparum stage V gametocytes
# Design: BacTiter-Glo ATP luminescence viability of purified stage V gametocytes in 384-well plates, per cent inhibition versus DMSO
# measurement-parameters: 48 h, 5 µM; inhibitor
The whole screen tested about 13,000 compounds, of which about 3,200 (25%) showed an effect of 50% or more. The list shows a part of the results.
measurement-label: % Inhibition (%)
Just the number in %, nothing appended.

Below are worked cases with known answers.
Cc1cnccc1/C=C/c1cccc(OCCN2CCc3ccc(S(C)(=O)=O)cc3CC2)c1 [TCMDC-135875]; 13.2
COc1nc2c(CCN3CCC(NCc4ccc5c(n4)NC(=O)CO5)CC3)c(Cl)cnc2cc1F [TCMDC-135766]; -7.442
CN(C)CCOc1cc(NC(=O)Nc2ccc(-c3ccccc3)cc2Cl)ccc1I [TCMDC-139140]; -41.53

The record that follows has no % Inhibition shown yet.
Please report the measured % Inhibition for C[C@H](NC(=O)[C@H](Cc1ccccc1)NC(=O)OC(C)(C)C)C(=O)N[C@@H](CC1CCCCC1)C(O)CN (stereo partly shown) [TCMDC-137178] tested on P. falciparum stage V gametocytes.
-9.62

###

# Test system: P. falciparum stage V gametocytes
# Parameters: BacTiter-Glo ATP luminescence viability of purified stage V gametocytes in 384-well plates, per cent inhibition versus DMSO
# measurement-parameters: 48 h, 5 µM; inhibitor
Screen size: about 13,000 compounds; about 3,200 (25%) showed an effect of 50% or more. The list shows a part of the results.
measurement-label: % Inhibition
Please give the number followed by its unit.

# example entries with known answers
Cc1c(C(=O)N(C)C)sc2c1c(=O)n(Cc1ccccc1)c(=O)n2CC(=O)Nc1ccccc1F [TCMDC-125279]; 4.453%
COc1ccc2[nH]c3ccccc3c(=O)c2c1 [TCMDC-123948]; 14.64%
COc1cccc(NC(=O)COc2ccc(C(=O)Nc3nc4ccccc4[nH]3)cc2)c1 [TCMDC-125060]; -14.04%

# return recorded % Inhibition for input Clc1ccc(CNc2ccnc(NCCc3coc4ccccc34)n2)c(Cl)c1 [TCMDC-135113]
37.58%

# return recorded % Inhibition for input COc1ccc(NC(=O)c2ccc(C=Cc3ccc(C(F)(F)F)cc3)cc2)cc1N1CCN(C)CC1 [TCMDC-138674]
15.84%

Give reported % Inhibition value for COc1ccc(NC(=O)c2ccc(Br)c(C)c2)cc1N1CCN(CCCc2c[nH]c3ccccc23)CC1 [TCMDC-139036]
49.59%

Quote % Inhibition reported for FC(F)(F)c1cccc(CCNc2nccc(NCc3ccccc3Cl)n2)c1 [TCMDC-135109] please.
78.4%

Supply reported % Inhibition belonging to this compound: Cc1[nH]c2ccccc2c1C1=CCN(CCN2CCOc3c(Br)cccc3C2=O)CC1 [TCMDC-140965]
-7.337%

Check the records and state % Inhibition for O=C(O)C(F)(F)F.c1cc(CNCCc2ccncc2)cc(-c2ccc(-c3nc4ccccc4[nH]3)cc2)c1 [TCMDC-132856]
-34.48%

Please supply the value of reported % Inhibition for the item COc1ccc(NC(=O)Nc2cccc(-c3cccc(-c4nc5ccccc5[nH]4)c3)c2)cc1 [TCMDC-133246]
-3.32%

Assign % Inhibition to the following record: CC(C)Cc1nc(N)nc(N)c1-c1ccc(Cl)cc1 [TCMDC-137932]
19.17%

// fetch % Inhibition given entry COc1ccc(NC(=O)c2ccc3cc4ccccc4cc3c2)cc1N1CCN(C)CC1 [TCMDC-138983]
82.38%

State its % Inhibition: COc1cc(Nc2nccn3c(-c4ccsc4)cnc23)cc(OC)c1OC [TCMDC-134382]
37.58%

Please list % Inhibition recorded for the compound CCN1CCN(c2cc(C)c3cc(NC(=O)c4ccc(OC)c(OC)c4)ccc3n2)CC1 [TCMDC-123598]
74.46%

Find the measured % Inhibition of O=C(O)C(F)(F)F.c1ccc(CCNCc2ccc(-c3cccc(-c4nc5ccccc5[nH]4)c3)cc2)nc1 [TCMDC-132537] and report it.
93.06%

# return recorded % Inhibition for input COc1ccc(CNCc2cccc(-c3csc(-c4nc5ccccc5[nH]4)c3)c2)cc1 [TCMDC-132734]
-55.02%

Please supply the value of reported % Inhibition for the item Cc1cc(NC2CCN(Cc3ccccc3)CC2)nc(NCCCCc2ccccc2)n1 [TCMDC-138304]
79.92%

Look up and state reported % Inhibition for CS(=O)(=O)c1ccc(CNCc2ccc(-c3cccc(-c4nc5ccccc5[nH]4)c3)cc2)cc1.O=C(O)C(F)(F)F [TCMDC-132557]
-11.29%

Supply measured % Inhibition of O=C(NC1CCN(Cc2ccccc2)CC1)c1cccc(Nc2nc(-c3ccccc3)cs2)c1 [TCMDC-136774] in your reply.
0.9462%

Please report the measured % Inhibition for Oc1ccc2[nH]cc(C3CCN(CCC(c4ccccc4)c4ccccc4)CC3)c2c1 [TCMDC-139017]
-54.72%

Give a short answer stating reported % Inhibition for Cc1ccc(Cn2c(N3CCC(C(=O)NCc4cccs4)CC3)nc3ccccc32)cc1 [TCMDC-124400] .
16.64%

Consider the compound O=C(O)C(F)(F)F.c1cncc(CCNCc2ccc(-c3cccc(-c4nc5ccccc5[nH]4)c3)cc2)c1 [TCMDC-132554] . State its measured % Inhibition.
4.222%

Return value of % Inhibition for input COc1cccc(NC(=O)[C@H](C(C)C)n2c(=O)[nH]c3ccccc3c2=O)c1 [TCMDC-125133] , no commentary.
96.89%
